# experimental-details: clinical
# conditions-used: male, human, in vivo, 2 mg
observable: AUC(0-inf) (ng·h/mL)

CN1CCc2cccc3c2[C@H]1Cc1ccc(O)c(O)c1-3 : 1.23

---

# experimental-details: clinical
# conditions-used: male, human, in vivo, 6 mg, cmax, Mean
observable: Cmax

CN1CCc2cccc3c2[C@H]1Cc1ccc(O)c(O)c1-3 : ~1.91 ng/mL

---

# experimental-details: clinical
# conditions-used: male, human, in vivo, 5 mg
observable: AUC(0-inf) (ng·h/mL)

CN1CCc2cccc3c2[C@H]1Cc1ccc(O)c(O)c1-3 [Apomorphine] : 2.92

---

# experimental-details: clinical
# conditions-used: male, human, in vivo, 4 mg
observable: AUC(0-inf) (ng·h/mL)

CN1CCc2cccc3c2[C@H]1Cc1ccc(O)c(O)c1-3 [Apomorphine] : 2.37

---

# experimental-details: clinical
# conditions-used: male, human, in vivo, 6 mg
observable: Tmax (min)

CN1CCc2cccc3c2[C@H]1Cc1ccc(O)c(O)c1-3 : 39.6

---

# experimental-details: clinical
# conditions-used: human, in vivo, sc, 1 mg
observable: AUC(0-inf) (ng·h/mL)

CN1CCc2cccc3c2[C@H]1Cc1ccc(O)c(O)c1-3 : 3.39
